Hey, just so you know, these numbers are from PubChem BioAssay (NCI).

# Tested on: HS 578T breast
# assay info: NCI-60 one-dose screen, 48 h (100 = growth as untreated, 0 = no growth, -100 = all killed)
# run conditions: 10 µM
About 83,000 compounds went through this panel and 20% of them were active in at least one assay; those are over-represented in the sample as a whole.
Field 'label' (enum: rule met / rule not met). Set to rule met when growth is strictly under 90%; else rule not met.

1. O=C(C=P(c1ccccc1)(c1ccccc1)c1ccccc1)CCl | rule met
2. O=C1Nc2ccccc2/C1=C/c1c[nH]c2ccccc12 | rule met
3. CC(C)(C)NC(=O)C(OC(=O)C1CCc2cc(F)ccc2O1)c1ccccc1Cl (centres undefined) | rule not met
4. [Ag].[Ag].[NH-]S(=O)(=O)c1ccc(N=Nc2cc(N=Nc3ccc(S([NH-])(=O)=O)cc3)c3c(NC(=O)C(Cl)Cl)cccc3c2OC(=O)C(Cl)Cl)cc1.[c-]1nccs1.[c-]1nccs1 | rule met
5. O=C1OC(c2ccc(-c3ccccc3)cc2)=C/C1=C/c1c(Cl)cccc1Cl | rule met
6. CN(C)CCOc1nc2c3cccnc3cc(-c3cccc(Cl)c3)c2c2ncccc12 | rule met
7. N=C(N)c1ccc(-c2ccc(-c3cc(Cl)cc(Cl)c3)o2)nc1 | rule met
8. CC(C)OC(=O)c1ccc([N+](=O)[O-])cc1 | rule not met
9. CNCc1ccccc1CN(CC(=O)Nc1ccc2c(c1)CC1(C2)C(=O)Nc2ncccc21)C(=O)C(C)(C)C (centres undefined) | rule not met

###

# Test system: SNB-19 CNS
# assay info: NCI-60 one-dose screen, 48 h
# run conditions: 10 µM unless noted
About 83,000 compounds went through this panel and 20% of them were active in at least one assay; those are over-represented in the sample as a whole. Activity calls are given as the source filed them. The calls were made as follows: active = growth percent below 10; inactive = the rest.
Labels: y for active, n for inactive

1. COc1cc2nccc(Oc3ccc(NC(=O)C4(C(=O)Nc5ccc(F)cc5)CC4)cc3)c2cc1O | n
2. COCCCNCC(=O)Nc1c(C)cccc1C | n
3. CCCCNCC(O)c1cc(-c2ccc(C(F)(F)F)cc2)nc(-c2ccc(C(F)(F)F)cc2)c1 (stereo not given) | y
4. O=C(CN1CCN(c2ccccc2)CC1)N1CCN(c2nnc(-c3ccc(Cl)cc3)c(-c3ccc(Cl)cc3)n2)CC1 | n
5. O=C1c2ccccc2C2N1CCC1CCc3ccccc3N12 (stereo not given) | n

###

# Test system: SF-539 CNS
# assay info: NCI-60 one-dose screen, 48 h (100 = growth as untreated, 0 = no growth, -100 = all killed)
# run conditions: 10 µM unless noted
The panel holds about 83,000 compounds, 20% with a hit somewhere; the sample as a whole holds those more often.
// assign yes if growth falls strictly below 90%, else no (ties count as no)

1) Cc1ccccc1N1C(c2ccccc2)=NNC12C=CC(=O)c1c(O)cccc12 (centres undefined) | yes
2) Cn1nc(C(F)(F)F)cc1-c1c[nH]c(OCc2ccc(Cl)cc2)c(-c2ccc(Cl)c(C(F)(F)F)c2)c1=O | yes
3) C=CCOc1c(Br)cc(Br)cc1Br | yes
4) C=CCN(CCOC(=O)c1ccc([N+](=O)[O-])cc1)CCOC(=O)c1ccc([N+](=O)[O-])cc1 | no
5) CCN(CC)CCCC(C)Nc1cnc(C(=O)Nc2cccc3ccc(OC)nc23)cn1 (centres undefined) | yes
6) COc1ccc2[nH]c(O)c(/C=c3/ccc4c(c3)N=C(c3ccc(C(F)(F)F)cc3)N=4)c2c1 | yes
7) CC1(C)C(N(O)C(=O)Nc2ccc(Cl)cc2)N(c2ccc(Cl)cc2)C(=O)N1CC(=O)N/N=C/C=C/c1ccc([N+](=O)[O-])o1 (centres undefined) | yes
8) COc1ccc(C2=Nn3c(nnc3-c3ccc(Cl)cc3N)SC2)cc1 | no
9) CC1=NOCC(=O)N1 | no
10) COc1cc(C2Nc3ccccc3S2)cc(CN2CCOCC2)c1O (centres undefined) | yes
11) COc1ccc(/C(=C\c2cc(OC)c(OC)c(OC)c2)C(=O)Nc2nc3ccc(Cl)cc3s2)cc1 | no
12) C=C(C)[C@@H]1CC[C@]2(C)[C@H](CC=C3[C@@H]4C[C@](C)(C(=O)N5CCN(C)CC5)CC[C@]4(C)CC[C@]32C)[C@@]1(C)CCC#N | yes
13) O=C1C=CC(=O)N1c1cccc(N2C(=O)C=CC2=O)c1 | no
14) CC(OC(=O)Nc1cccc(Cl)c1)C(=O)O (centres undefined) | no
15) O=C(C(Br)C(Br)c1ccccc1)C(Br)C(Br)c1ccccc1 (centres undefined) | yes
16) CSC1=NC(=Nc2c(C)cccc2C)C2(CCC(C(C)(C)C)CC2)N1c1ccc(Cl)cc1 (centres undefined) | yes
17) CN1CCN(Cc2ccc(NC(=O)c3cncc(C#Cc4ncc5cnccn45)c3)cc2C(F)(F)F)CC1 | yes
18) Cc1ccc(N2C3c4ccccc4N(S(=O)(=O)c4ccc(C)cc4)C2c2ccccc2N3S(=O)(=O)c2ccc(C)cc2)cc1 | no
19) ClCc1cccc(CSc2ncnc3c2ncn3Cc2cccc(CCl)c2)c1 | yes
20) Cc1nc2ccc(Nc3nc(NCCN4CCOCC4)nc(Nc4ccc(F)cc4)n3)cc2n1Cc1ccccc1 | yes
21) CC(=O)c1cccc(Nc2ncnc3ccc(NC(=O)c4ccco4)cc23)c1 | no
22) Cc1cc(-c2nnc(/C=C/c3ccc4c(c3)OCO4)o2)n[nH]1 | yes
23) COc1ccc(-c2nsc3c2NC(=O)CC3c2cccc(F)c2)cc1 (centres undefined) | yes
24) CC1CCN(Cc2ccc(NC(=O)c3cc4ccc5cccnc5c4[nH]3)cc2)CC1 | yes
25) CC1(C)CC[C@]2(C(=O)N3CCNCC3)CC[C@]3(C)C(=CC[C@@H]4[C@@]5(C)CCC(=O)C(C)(C)[C@@H]5CC[C@]43C)[C@@H]2C1 | no
26) NC(=S)N/N=C(/c1cccs1)C1CC1 | no
27) C#CC[C@@H]1C[C@]2(C)[C@H]3CC[C@@H]4[C@H]5C(C(=C)C)CC[C@]5(C(=O)NCCN(CCN)CCN)CC[C@@]4(C)[C@]3(C)CC[C@H]2C(C)(C)[C@H]1OC(C)=O (some centres undefined) | no
28) O=C(O)C1[S][Sb]([CH](C(=O)O)[CH](C(=O)O)[Sb]2[S]C(C(=O)O)C(C(=O)O)[S]2)[S]C1C(=O)O (centres undefined) | yes
29) COc1ccc(/C(=C\c2ccc3c(c2)OCO3)C(=O)Nc2nc3ccccc3s2)cc1 | no
30) CCc1ccc2c(c1)N(CCO)C1=C(C(=O)OC1)C2c1cccc(Br)c1 (centres undefined) | yes
31) CC(C)(C)NC(=O)C(OC(=O)C1CCc2cc(F)ccc2O1)c1ccccc1Cl (centres undefined) | no
32) Cc1cc2nc3c(=O)[nH]c(=O)nc-3n(CC=O)c2cc1C | no
33) CN(C)c1ccc(C(c2ccccc2)c2ccc(N(C)C)cc2)cc1 | no
34) Fc1ccc(-c2ccnc3nc(-c4ccncc4)nn23)cc1 | no
35) CC1=NC(c2ccc(Cl)cc2)C2=C(N1)/C(=C/c1ccc(Cl)cc1)CCC2 (centres undefined) | no
36) O=[N+]([O-])c1cccc([I+]c2ccccc2)c1 | yes

###

# System: SN12C renal
# assay info: NCI-60 one-dose screen, 48 h (100 = growth as untreated, 0 = no growth, -100 = all killed)
# run conditions: 10 µM unless noted
Compounds without any hit were thinned out: in the full panel of roughly 83,000, 20% have a hit.
Doc: threshold 30% (exclusive). Items with growth beneath it return TRUE; others return FALSE.

1. C=C(C)C1CCC2(C(=O)O)CCC3(C)C(CCC4C5(C)CCC(O)C(C)(C)C5CCC43C)C12 (stereo not given) | TRUE
2. CCCCOc1ncnc2nc[nH]c12 | FALSE
3. CCN(CC)CCCCCCCNc1cc(OC)cc2c(C)ccnc12 | FALSE
4. Fc1ccc2c(CN3CCO[C@H](COc4cccc(Cl)c4)C3)c[nH]c2c1 | FALSE
5. Cn1nc(C(F)(F)F)cc1-c1cc(Cl)c(OCc2ccc(Cl)cc2)c(-c2ccc(Cl)c(C(F)(F)F)c2)c1O | TRUE

###

# Tested on: T-47D breast
# assay info: NCI-60 one-dose screen, 48 h (100 = growth as untreated, 0 = no growth, -100 = all killed)
# run conditions: 10 µM unless noted
About 83,000 compounds went through this panel and 20% of them were active in at least one assay; those are over-represented in the sample as a whole.
Please enter y where growth is greater than or equal to 70%, and n where it is lower.

1) C/C(CC(=O)NNc1ccc([N+](=O)[O-])cc1)=N\Nc1ccc([N+](=O)[O-])cc1 | n
2) COc1cccc(OCC(O)CN2CCN(c3ccccc3)CC2)c1 (stereo unspecified) | y
3) ClCc1cccc(CSc2ncnc3c2ncn3Cc2cccc(CCl)c2)c1 | n
4) COc1ccc(/C=C2\Cc3c(Br)cccc3C2=O)c(OC)c1 | y
5) CSCCC1NC(=O)C(C(C)=Nc2ccccc2)=C1O (stereo unspecified) | y
6) Nc1ccc(N(O)/C=C2\C=CC=CC2=O)cc1N | y
7) O=C(OCc1ccc2c(Br)cc(Br)c(O)c2n1)c1cc2ccccc2[nH]1 | n
8) O=C1C=CC(=O)N1c1cccc(N2C(=O)C=CC2=O)c1 | n
9) NC(=O)c1noc(C(=O)c2ccccc2)c1N | y
10) COc1cc(-c2n/c(=C\c3c(O)[nH]c4cc(Cl)ccc34)cc3c2=Nc2ccccc2-3)cc(OC)c1OC | n
11) CN(C)CCOc1nc2c3cccnc3cc(-c3cccc(Cl)c3)c2c2ncccc12 | n
12) COc1cccc(Cn2c(-c3nonc3NC(C)=O)nc3ccccc32)c1 | n
13) COc1ccc(/C=C/C(=O)c2ccc(NC(=O)CSc3nnc(-c4ccc(Cl)cc4)n3-c3ccccc3)cc2)cc1 | y
14) CC(=O)N1N=C(c2ccc(C)cc2)CC1c1cn(-c2ccccc2)nc1-c1cccc(Nc2ccnc3cc(Cl)ccc23)c1 (stereo unspecified) | n
15) COc1cc(C2CC(c3cccc(Nc4ccnc5cc(Cl)ccc45)c3)=NN2c2ccc(Cl)cc2)cc(OC)c1OC (stereo unspecified) | n
16) CCOC(=O)C(=CNc1ccccc1Cl)C(=O)OCC | y
17) OC(c1cc(-c2ccc(C(F)(F)F)cc2)nc(-c2ccc(C(F)(F)F)cc2)c1)C1CCCCN1 (stereo unspecified) | n
18) COC1=CC(c2ccc[nH]2)=N/C1=C\c1[nH]c(C)c(C(=O)CCCCCCCCC(=O)O[C@H]2CC[C@H]3C4CCc5cc(O)ccc5C4CC[C@]23C)c1C (stereo partly specified) | n
19) O=c1cc(-c2ccc3c(c2)OCCO3)oc2cc(Cl)ccc12 | n
20) O=C1C(Cl)=C(N/N=c2/[nH][nH]/c(=N/NC3=C(Cl)C(=O)c4ccccc4C3=O)c3ccccc23)C(=O)c2ccccc21 | n
